EXPERIMENTAL DETAILS: NCI Yeast Anticancer Drug Screen. Data for the bub3 strain (AID 167)
MEASUREMENT CONTEXT: S. cerevisiae bub3 mutant strain, at 5.0 µM (retest, dose inferred, filed as 0.5), hits give high values
Description: Growth inhibition of yeast strains with defined genetic alterations is measured as a screen for potential anti-cancer activity. Selected strains with alterations in DNA damage repair or cell cycle control were exposed to compounds and growth inhibition was measured relative to vehicle treated controls. The strain used in this assay is bub3
This is part of a sample that, as a whole, favours compounds with a hit. Of some 79,000 tested, about 15% had one in any assay.
Could you please report measured growth inhibition for the items listed next?
// units = %; emit number, no label

[Q] GET /values?readout=growth inhibition&item= C=CC1(C)CCC2C(=CCC3C(C)(COC4OC(CO)C(O)C(O)C4O)C(O)CCC23C)C1 (stereo not given)
[A] 18

[Q] Also need "C/C(=N\NC(=S)N1CCN(C2CCCCC2)CC1)c1ccccn1" , thanks.
[A] -16

[Q] One more compound: "CC(C)(C)CC(=O)O"
[A] 2

[Q] Next compound: "Cc1c(-c2ccccc2)ccnc1/C=N/NC(=S)NCCc1ccccc1"
[A] 55

[Q] Lookup "CCNC(=S)NC1CCCCCCCCCCC1"
[A] 40

[Q] What would you report for COc1cc(Br)c(CC(NC=O)c2ccc3c(c2)OCO3)cc1OC (stereo not given) ?
[A] 3

[Q] Param item: "CCOC(=O)Cc1csc2[n+]1C(=O)/C(=C\c1cccc(Cl)c1Cl)S2"
[A] -32

[Q] Request: NC(=O)C1CCCN1C(=O)C1CCCN(Cc2ccc(CN3CCCC(C(=O)N4CCCC4C(N)=O)C3)cc2)C1 (stereo not given)
[A] 16

[Q] Also "CCCCCCCCCCCCCCCCOS(=O)(=O)O" ?
[A] 20

[Q] // query: "CC(=O)Nc1ccc(N=Cc2cc(Cl)cc(Cl)c2O)cc1"
[A] 97

[Q] Queued: "CC(CCC(=O)O)(c1cc(Br)c(O)c(Br)c1)c1cc(Br)c(O)c(Br)c1"
[A] -3

[Q] Try COc1ccc(C(=O)C2OC2c2ccccc2)cc1 (stereo not given) next.
[A] 3

[Q] Same question, "Cc1ccc([P+](CCN2C(=O)c3ccccc3C2=O)(c2ccc(C)cc2)c2ccc(C)cc2)cc1" this time
[A] 86

[Q] Now try "[O-][n+]1c2ccccc2cc2c1c1ccccc1n2O" .
[A] 6

[Q] Moving on to the next compound: "CCC(=O)Oc1ccc(-c2ccccc2)cc1Cl"
[A] 14

[Q] What do we get for "COc1ccccc1C(=O)N(Cc1ccccc1)c1ccc(Cl)c(C(=O)OC(C)C)c1" ?
[A] -55

[Q] Same question for "CCCCCCCCCCCCCCC[C@@H](O)C[N+](C)(C)CCO" please.
[A] 69

[Q] Continue with "O=[N+]([O-])c1ccc(O)c(C=Nc2ccccc2)c1"
[A] -71

[Q] Item: CCO/N=C1\CCCCC1SS(=O)(=O)O (stereo not given)
[A] 5

[Q] Query "CC(C)[C@H](N)C(=O)NCCNC(=O)[C@@H](N)C(C)C" next
[A] 93

[Q] How about COC(=O)C1(COCc2ccccc2)CCCC2OC21 (stereo not given) ?
[A] 5

[Q] One more compound: "CC(C)C(C)(C(=O)O)C(C)C"
[A] -1

[Q] Field entry: Cc1nnc(NS(=O)(=O)c2ccc(N=Nc3cc(N=Nc4ccc(S(=O)(=O)Nc5nnc(C)s5)cc4)c4c(NC(=O)C(Cl)Cl)cccc4c3OC(=O)C(Cl)Cl)cc2)s1 (tested in a mixture with another compound)
[A] 91

[Q] Then what about the compound "N#CSc1ccc(O)c2ccccc12" ?
[A] 42

[Q] How about this compound: "C[Si](C)(CCC(=O)O)O[Si](C)(C)CCC(=O)O"
[A] -9

[Q] Repeat with CCC#CC(O)(C(=O)OCC)C1CCCC1 (stereo not given)
[A] -67

[Q] Moving on to "Cc1cc(C)c(O)c(C(C)(C)C)c1"
[A] 3

[Q] Request: "CC/C(=C(\CC)c1ccc(O)c(CN(CCO)CCO)c1)c1ccc(O)cc1"
[A] -5

[Q] Request: CC1CCCC(C(c2c[nH]c3ccccc23)c2c[nH]c3ccccc23)C1=O (stereo not given)
[A] -11

[Q] Repeat for the following compound: "Cc1cc(N(CCCOS(C)(=O)=O)CCCOS(C)(=O)=O)ccc1C=Nc1cc(Br)c(O)c(Br)c1"
[A] 0

[Q] Next compound: "CCCCN(C)N=Nc1c(C(N)=O)n[nH]c1C(C)C"
[A] -4

[Q] What would you report for O=C1C(Cl)=C(c2ccccc2)C1Cl (stereo not given) ?
[A] 96

[Q] Note, next up: "C/C(=N/NC(=S)Nc1ccc([N+](=O)[O-])cc1)c1cccc(/C(C)=N\NC(=S)Nc2ccc([N+](=O)[O-])cc2)n1"
[A] 21

[Q] Request: "Cc1c(O)ccc(C(=O)CCl)c1O"
[A] -69

[Q] Input "Cc1cc(=O)c2cc(N=Cc3ccc([N+](=O)[O-])o3)ccc2o1"
[A] -4

[Q] Try the compound "COc1cc[c]([Sn]([c]2ccc(OC)cc2)([c]2ccc(OC)cc2)[c]2ccc(OC)cc2)cc1"
[A] 6

[Q] What do you get for "COc1cc(/C=C/C(=O)c2ccc3ccccc3c2)cc(OC)c1OC" ?
[A] 22

[Q] Queued: "C(=C\c1cnnc2ccccc12)/c1cccnc1"
[A] 6

[Q] Could you do the same for "CCN(CC)C(=O)CCCC1CCCCC1" , please?
[A] 6

[Q] Can you handle CCOP(=O)(OCC)OC1c2[nH]ccc2-c2cc(C(=O)OC)[nH]c2C1OC (stereo not given) next?
[A] 3

[Q] Please give the result for "CCCCCCCCC(=O)Cl" too.
[A] 0

[Q] What about CCCC12C=C(OC)C(=O)C=C1OC(c1ccc3c(c1)OCO3)C2C (stereo not given) ?
[A] 19

[Q] And for "O=C1/C(=C/c2ccccc2)CNC/C1=C\c1ccccc1" ?
[A] 6

[Q] And what about the compound NNC(=S)N/N=C(/C(=O)Nc1ccc(Cl)c(Cl)c1)C(C1OC(=O)c2ccccc21)[N+](=O)[O-] (stereo not given) ?
[A] 28

[Q] Follow-up item: CC(C)CC(C(=O)SCC(C)N1CCCC1)c1ccccc1 (stereo not given)
[A] 15
